Where do the numbers come from? From ChEMBL document CHEMBL4396966.

experiment: Antiproliferative activity against AR-rich human LNCaP-hr cells assessed as reduction in cell viability after 24 hrs by CCK-8 assay; type: functional
log10(IC50) listing for selected molecules.
Units before log transform: µM; reported quantity: IC50; transform: log10.

Reference set (6 entries):
O=c1cc(N2CCN(c3ccccc3C(F)(F)F)CC2)c2ccc3ccccc3c2o1 = 0.06
O=c1cc(N2CCN(c3ccc(F)cc3)CC2)c2ccc3ccccc3c2o1 = 1.29
Cc1ccccc1N1CCN(c2cc(=O)oc3c2ccc2ccccc23)CC1 = 0.65
O=c1cc(N2CCN(c3ccc(Cl)cc3)CC2)c2ccc3ccccc3c2o1 = 0.11
O=c1cc(N2CCN(C(c3ccc(F)cc3)c3ccc(F)cc3)CC2)c2ccc3ccccc3c2o1 = 0.01
COc1cccc(N2CCN(c3cc(=O)oc4c3ccc3ccccc34)CC2)c1 = 1.12

log10(IC50) reported for this molecule O=c1cc(N2CCN(c3ccccn3)CC2)c2ccc3ccccc3c2o1 : 0.28

log10(IC50) reported for this molecule O=c1cc(N2CCN(c3ccc(C(F)(F)F)cc3)CC2)c2ccc3ccccc3c2o1 : 1.09

log10(IC50) reported for this molecule Cc1ccc(N2CCN(c3cc(=O)oc4c3ccc3ccccc34)CC2)cc1 : 0.89
